Please go through the items and note down their % of control metabolism, raloxifene G2.
Test system: UGT enzymes of human liver microsomes
Assay: Inhibition of raloxifene glucuronidation (G1, G2) in human liver microsomes
Type: biochemical
Settings: raloxifene 50 μM; inhibitor 10 μM

Challenge: Please indicate % of control metabolism, raloxifene G2 recorded for O=C(OC[C@H]1O[C@@H](OC(=O)c2cc(O)c(O)c(OC(=O)c3cc(O)c(O)c(O)c3)c2)[C@H](OC(=O)c2cc(O)c(O)c(OC(=O)c3cc(O)c(O)c(O)c3)c2)[C@@H](OC(=O)c2cc(O)c(O)c(OC(=O)c3cc(O)c(O)c(O)c3)c2)[C@@H]1OC(=O)c1cc(O)c(O)c(OC(=O)c2cc(O)c(O)c(O)c2)c1)c1cc(O)c(O)c(OC(=O)c2cc(O)c(O)c(O)c2)c1
Response given: 30 (1) %

Challenge: Please indicate % of control metabolism, raloxifene G2 recorded for O=c1c(O)c(-c2ccc(O)c(O)c2)oc2cc(O)cc(O)c12
Response given: 50 (1) %

Challenge: Please indicate % of control metabolism, raloxifene G2 recorded for O=C(O[C@@H]1Cc2c(O)cc(O)cc2O[C@@H]1c1cc(O)c(O)c(O)c1)c1cc(O)c(O)c(O)c1 [Epigallocatechin gallate]
Response given: 82 (3) %

Challenge: Please indicate % of control metabolism, raloxifene G2 recorded for CCCCCCCCOC(=O)c1cc(O)c(O)c(O)c1 [Octyl gallate]
Response given: 75 (8) %

Challenge: Please indicate % of control metabolism, raloxifene G2 recorded for O=C(O[C@@H]1Cc2c(O)cc(O)cc2O[C@H]1c1cc(O)c(O)c(O)c1)c1cc(O)c(O)c(O)c1 [Gallocatechin gallate]
Response given: 83 (4) %

Challenge: Please indicate % of control metabolism, raloxifene G2 recorded for CC/C(=C(/CC)c1ccc(O)cc1)c1ccc(O)cc1 [Diethylstilbestrol, reference compound]
Response given: 111 (7) %

Challenge: Please indicate % of control metabolism, raloxifene G2 recorded for O=C(O[C@@H]1Cc2c(O)cc(O)cc2O[C@@H]1c1ccc(O)c(O)c1)c1cc(O)c(O)c(O)c1 [Epicatechin gallate]
Response given: 73 (4) %

---

Please go through the items and note down their activity at 15 min, 50 µM.
Molecular target: UGT1A3 (Homo sapiens)
Sequence (P35503 29-534): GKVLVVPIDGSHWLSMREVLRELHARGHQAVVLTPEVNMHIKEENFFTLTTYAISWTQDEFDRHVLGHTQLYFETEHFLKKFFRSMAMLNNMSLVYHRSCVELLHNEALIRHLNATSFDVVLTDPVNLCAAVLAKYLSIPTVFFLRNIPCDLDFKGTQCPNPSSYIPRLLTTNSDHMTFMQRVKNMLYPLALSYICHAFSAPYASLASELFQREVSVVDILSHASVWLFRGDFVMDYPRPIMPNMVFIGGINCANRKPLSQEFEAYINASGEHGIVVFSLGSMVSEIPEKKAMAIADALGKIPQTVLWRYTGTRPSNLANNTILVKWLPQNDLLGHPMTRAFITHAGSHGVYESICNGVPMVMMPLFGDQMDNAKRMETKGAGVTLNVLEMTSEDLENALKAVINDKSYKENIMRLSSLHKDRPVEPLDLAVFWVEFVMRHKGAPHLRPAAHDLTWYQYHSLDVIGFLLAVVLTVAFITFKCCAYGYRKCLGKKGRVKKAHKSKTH
Assay: in vitro
Conditions: pH 7.5, % of control metabolism, raloxifene G1

Challenge: Please indicate activity at 15 min, 50 µM recorded for O=C(O)Cc1ccccc1Nc1c(Cl)cccc1Cl [Diclofenac, reference compound]
Response given: 74%

Challenge: Please indicate activity at 15 min, 50 µM recorded for O=C(O[C@@H]1Cc2c(O)cc(O)cc2O[C@@H]1c1ccc(O)c(O)c1)c1cc(O)c(O)c(O)c1 [Epicatechin gallate]
Response given: 57%

Challenge: Please indicate activity at 15 min, 50 µM recorded for COc1c(C)c2c(c(O)c1C/C=C(\C)CCC(=O)O)C(=O)OC2 [Mycophenolic acid, reference compound]
Response given: 95%

Challenge: Please indicate activity at 15 min, 50 µM recorded for COc1cc(C2Oc3cc([C@H]4Oc5cc(O)cc(O)c5C(=O)[C@@H]4O)ccc3OC2CO)ccc1O (stereo partly shown)
Response given: 37%

Challenge: Please indicate activity at 15 min, 50 µM recorded for CCCOC(=O)c1cc(O)c(O)c(O)c1 [Propyl gallate]
Response given: 55%

Challenge: Please indicate activity at 15 min, 50 µM recorded for C=CCc1ccc(O)c(OC)c1
Response given: 89%

Challenge: Please indicate activity at 15 min, 50 µM recorded for O=C(O)c1cc(-c2ccc(F)cc2F)ccc1O [Diflunisal, reference compound]
Response given: 83%
